From: ChEMBL document CHEMBL4312004

- assayMethodText: Drug degradation in IMDM cell medium incubated for 24 hrs by HPLC analysis
- Type: physicochemical
- measurementSetup: read-out: Drug degradation

{"columns": ["molecule", "readoutUnit", "degraded at 24 h"],
 "data": [
  ["OC[C@H]1O[C@@H](Oc2ccc(/C=C/c3cc(O)cc(O)c3)cc2)[C@H](O)[C@@H](O)[C@@H]1O", "%", 30]
]}
